# Tested on: CCRIS mutagenicity, Ames/micronucleus/aberration tests
# Procedure summary: CCRIS mutagenicity studies
# Measurement setup: Test System: AMES SALMONELLA TYPHIMURIUM; Strain/Indicator: TA100; Metabolic Activation: NONE; Method: STANDARD PLATE
Activity calls are given as the source filed them. The rule behind the calls is not given here.
Hi! Could you answer with just one of these? active, inactive

OCc1cccc2c1-c1cccc3cccc-2c13 : inactive
O=C(O)c1nn(Cc2ccc(Cl)cc2Cl)c2ccccc12 : inactive

Consider the record given below.
Q: Each compound tested received a call. Report the one for CC(=O)c1cc2c(cc1C)C(C)(C)C(C)CC2(C)C (centres undefined) .
Ans: inactive

###

# Test system: CCRIS mutagenicity, Ames/micronucleus/aberration tests
# Procedure summary: CCRIS mutagenicity studies
# Measurement setup: Test System: AMES SALMONELLA TYPHIMURIUM; Strain/Indicator: TA100; Metabolic Activation: HAMSTER, LIVER, S-9, AROCLOR 1254 (10%); Method: STANDARD PLATE
The source made the active and inactive calls. The rule behind the calls is not given here.
Hi! Could you answer with just one of these? active, inactive

Take a look at these entries with their results.
CC(O)CN1CC(C)OC1=O (configuration not stated) : inactive
O=C1c2ccc3nc(-c4ccccc4)sc3c2C(=O)c2ccc3nc(-c4ccccc4)sc3c21 : inactive
O=C1CCC(=O)N1Br : active

Q: Each compound tested received a call. Report the one for `N#Cc1cc(Br)c(O)c(Br)c1` .
Ans: inactive

Q: Try this compound next: `O=C([O-])c1ccc2ccccc2c1.[Mn+2].[O-]C(O)c1ccc2ccccc2c1`
Ans: inactive

Q: Try this compound next: `C=C[Si](C)(C)N[Si](C)(C)C=C`
Ans: inactive

Q: Try this compound next: `C=C[Si](C)(C)CCl`
Ans: inactive

###

# System: CCRIS mutagenicity, Ames/micronucleus/aberration tests
# Procedure summary: CCRIS mutagenicity studies
# Measurement setup: Test System: AMES SALMONELLA TYPHIMURIUM; Strain/Indicator: TA1535; Metabolic Activation: NONE; Method: PREINCUBATION
Activity calls are given as the source filed them. How the calls were made is not given here.
Hi! Could you answer with just one of these? True (active), False (inactive)

CC(=O)Nc1cccc(N)c1 : False
CC1CC(C)C(=O)C1=O (stereo not given) : False
CCC(C)(C)c1ccc(O)cc1 : False

Q: Each molecule tested received a call. Report the one for `CC(=O)NNc1ccccc1` .
Ans: True

Q: Try this molecule next: `CC=O`
Ans: False

Q: Try this molecule next: `N#Cc1ccc([N+](=O)[O-])cc1`
Ans: False

Q: Try this molecule next: `COc1cccc(N)c1`
Ans: False

Q: Try this molecule next: `C=C(C)C(=O)OCC(C)C`
Ans: False

Q: Try this molecule next: O=C1N(CO)C(O)C(O)N1CO (stereo not given)
Ans: False

Q: Try this molecule next: `CNCCO`
Ans: False

Q: Try this molecule next: `OCCCCO`
Ans: False

Q: Try this molecule next: `Nc1c(Br)cc(Br)c2c1C(=O)c1ccccc1C2=O`
Ans: False

Q: Try this molecule next: `c1ccc2n[nH]nc2c1`
Ans: False

Q: Try this molecule next: `OCC(O)CO`
Ans: False

###

# Test system: CCRIS mutagenicity, Ames/micronucleus/aberration tests
# Procedure summary: CCRIS mutagenicity studies
# Measurement setup: Test System: AMES SALMONELLA TYPHIMURIUM; Strain/Indicator: TA98; Metabolic Activation: RAT, LIVER, S-9, AROCLOR 1254; Method: STANDARD PLATE
Calls of active or inactive are those of the source. The rule behind the calls is not given here.
Hi! Could you answer with just one of these? active, inactive

Cc1cc(N)c([N+](=O)[O-])cc1N : active
CC1=CC(=O)C=C2CC[C@@H]3[C@H](CC[C@]4(C)C(=O)CC[C@@H]34)[C@@]12C : inactive
CCC(CCC(C)O)COC(=O)c1ccccc1C(=O)O (stereo not given) : inactive
C1CSCSC1 : inactive
CC(=O)OCC1=CO[C@@H](OC(=O)CC(C)C)[C@H]2C1=C[C@H](OC(=O)CC(C)C)[C@]21CO1 : inactive

Q: Each compound tested received a call. Report the one for `CS(C)=O` .
Ans: inactive

Q: Try this compound next: `[Cl][Cd][Cl]`
Ans: inactive

Q: Try this compound next: CCC1=C(C(=O)OC)C(=O)OC1C (stereo not given)
Ans: active

Q: Try this compound next: `CC(=O)[C@]1(O)Cc2c(O)c3c(c(O)c2[C@@H](O[C@H]2C[C@H](N)[C@H](O)[C@H](C)O2)C1)C(=O)c1c(O)cccc1C3=O`
Ans: active

Q: Try this compound next: `O.O.O.O=C([O-])[C@H]([O-])[C@@H]([O-])C(=O)[O-].O=C([O-])[C@H]([O-])[C@@H]([O-])C(=O)[O-].[K+].[K+].[Sb+3].[Sb+3]`
Ans: inactive

Q: Try this compound next: `C1COCCOCCOCCOCCO1`
Ans: inactive

Q: Try this compound next: `CSCC[C@H](NC(=O)[C@@H](N)Cc1c[nH]c2ccccc12)C(=O)N[C@@H](CC(=O)O)C(=O)N[C@@H](Cc1ccccc1)C(N)=O`
Ans: inactive

Q: Try this compound next: `C=CC(=O)OCC`
Ans: inactive

Q: Try this compound next: `Nc1ccc(S(=O)(=O)Nc2cnc3c(Cl)cccc3n2)cc1`
Ans: inactive

###

# Test system: CCRIS mutagenicity, Ames/micronucleus/aberration tests
# Procedure summary: CCRIS mutagenicity studies
# Measurement setup: Test System: AMES SALMONELLA TYPHIMURIUM; Strain/Indicator: TA100; Metabolic Activation: RAT, LIVER, S-9, PCB; Method: SUSPENSION
Active and inactive are the calls of the source. No rule for the calls is given here.
Measurement type: mutagenic call

Example results:
O=[N+]([O-])c1ccc2c(c1)Oc1ccc([N+](=O)[O-])cc1O2 : inactive; negative
O=[N+]([O-])c1cccc2oc3ccccc3c12 : inactive; negative
O=[N+]([O-])c1ccc2c(c1)Oc1ccccc1O2 : inactive; negative
O=[N+]([O-])c1ccc2c(c1)oc1ccccc12 : inactive; negative

Now examine the next entry.
Q: Fill in the blank: the reported mutagenic call of `c1ccc2c(c1)Oc1ccccc1O2` is ____.
Ans: inactive; negative

###

# Test system: CCRIS mutagenicity, Ames/micronucleus/aberration tests
# Procedure summary: CCRIS mutagenicity studies
# Measurement setup: Test System: AMES SALMONELLA TYPHIMURIUM; Strain/Indicator: TA102; Metabolic Activation: RAT, LIVER, S-9, PHENOBARBITAL AND BETA-NAPHTHOFLAVONE; Method: PREINCUBATION
# From the text: The CCRIS database contains chemical records with carcinogenicity, mutagenicity, tumor promotion, and tumor inhibition test results. It was developed by the National Cancer Institute (NCI). Data are derived from studies cited in primary journals, current awareness tools, NCI reports, and other sources. Test results have been reviewed by experts in carcinogenesis and mutagenesis. CCRIS provides historical information from the years 1985 - 2011. It is no longer updated. […]
The source made the active and inactive calls. How the calls were made is not given here.
Hi! Could you answer with just one of these? active, inactive

O=[N+]([O-])c1ccc(O)c([N+](=O)[O-])c1 : inactive
NCc1ccc(CN)cc1 : inactive
CC(=O)C=O : active

Consider the record given below.
Q: Each molecule tested received a call. Report the one for `COC(=O)Nc1nc2ccccc2[nH]1` .
Ans: inactive

###

# System: CCRIS mutagenicity, Ames/micronucleus/aberration tests
# Procedure summary: CCRIS mutagenicity studies
# Measurement setup: Test System: AMES SALMONELLA TYPHIMURIUM; Strain/Indicator: TA100; Metabolic Activation: RAT, LIVER, S-9, KANECHLOR 500; Method: PREINCUBATION
The source made the active and inactive calls. No rule for the calls is given here.
Hi! Could you answer with just one of these? t (active), f (inactive)

Take a look at these entries with their results.
NNc1ccc([N+](=O)[O-])cc1 : t
O=[N+]([O-])c1ccc(O)c([N+](=O)[O-])c1 : f
CCc1ccc([N+](=O)[O-])cc1 : f
O=C(O)c1ccccc1[N+](=O)[O-] : t

Consider the record given below.
Q: Each compound tested received a call. Report the one for `CC(=O)Nc1ccc2cccnc2c1` .
Ans: t

###

# Tested on: CCRIS mutagenicity, Ames/micronucleus/aberration tests
# Procedure summary: CCRIS mutagenicity studies
# Measurement setup: Test System: AMES SALMONELLA TYPHIMURIUM; Strain/Indicator: TA100; Metabolic Activation: NONE; Method: PREINCUBATION
The source made the active and inactive calls. How the calls were made is not given here.
Hi! Could you answer with just one of these? YES (active), NO (inactive)

Take a look at these entries with their results.
O=C(CCl)NCO : NO
CCCC/C=C/C=C/C=C/C=C/C=C/OC[C@@H](O)CO : YES
C[Si](C)(C)N=[N+]=[N-] : YES
O=[N+]([O-])c1ccc(/C=C/c2ccc([N+](=O)[O-])cc2S(=O)(=O)O)c(S(=O)(=O)O)c1 : NO
CN(C)CCO : NO
O=[N+]([O-])c1cccc2oc3ccccc3c12 : NO

Q: Each molecule tested received a call. Report the one for `CCCCCCCCCCCCCCCCN` .
Ans: NO

Q: Try this molecule next: CC(O)CBr (stereo not given)
Ans: YES

Q: Try this molecule next: `Nc1cccc(-c2ccccc2)c1`
Ans: NO

Q: Try this molecule next: CCCCC(CC)CN (stereo not given)
Ans: NO

Q: Try this molecule next: CC(O)c1ccccc1 (stereo not given)
Ans: NO

Q: Try this molecule next: `C=C(Cl)CCl`
Ans: YES

Q: Try this molecule next: CCCCC(CC)COCCC#N (stereo not given)
Ans: NO

Q: Try this molecule next: `CNC(=O)C[C@@H](N)C(=O)N[C@@H](C(=O)N[C@@H]1C(=O)N2[C@@H]1SC(C)(C)[C@@H]2C(=O)O)c1ccc(O)cc1`
Ans: NO

Q: Try this molecule next: `CCN1CCNC(=O)C1=O`
Ans: NO
